molecular target: T1, human transferrin receptor (BIAcore, construct not stated) (human, UniProt P02786 89-760); assay: SPR, 25 C
T1 construct: also called huTfR
T1 sequence (P02786 89-760): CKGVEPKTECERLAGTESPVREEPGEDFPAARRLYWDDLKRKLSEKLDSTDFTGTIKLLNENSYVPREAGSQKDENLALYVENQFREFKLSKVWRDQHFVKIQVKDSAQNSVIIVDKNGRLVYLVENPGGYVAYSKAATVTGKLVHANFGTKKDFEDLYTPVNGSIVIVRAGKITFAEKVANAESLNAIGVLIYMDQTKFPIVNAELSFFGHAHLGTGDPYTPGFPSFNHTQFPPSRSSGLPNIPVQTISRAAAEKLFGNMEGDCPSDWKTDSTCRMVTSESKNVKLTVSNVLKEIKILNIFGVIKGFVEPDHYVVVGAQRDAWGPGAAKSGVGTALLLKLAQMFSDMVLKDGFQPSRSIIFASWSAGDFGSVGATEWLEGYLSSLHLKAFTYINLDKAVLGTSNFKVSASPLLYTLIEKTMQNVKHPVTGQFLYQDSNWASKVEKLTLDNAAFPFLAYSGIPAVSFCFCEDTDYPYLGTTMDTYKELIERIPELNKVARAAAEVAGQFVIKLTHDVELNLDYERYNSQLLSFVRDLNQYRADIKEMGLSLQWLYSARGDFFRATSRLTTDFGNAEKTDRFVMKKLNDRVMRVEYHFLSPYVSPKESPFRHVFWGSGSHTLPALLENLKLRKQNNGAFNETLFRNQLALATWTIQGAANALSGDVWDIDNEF
Below, each entry is listed alongside its reported koff.
# output: bare number, implied unit s⁻¹

Any idea what its koff is? The binder is clone 299 VH 16 / VL 0 (rb) (antibody, V domains shown) VH: QQLQESGPGLVKPSETLSLTCTVSGFSLSSYAMSWVRQPPGKGLEWIGYIWSGGSTDYNPSLKSRVTISVDTSKNQVSLKLSSVTAADTAVYYCARRYGTSYPDYGDANGFDPWGPGTLVTVSS VL: AYDMTQTPASVEVAVGGTVTIKCQASQSISSYLSWYQQKPGQRPKLLIYRASTLASGVSSRFKGSGSGTQFTLTISGVECADAATYYCQQCYSSSNVDNTFGGGTEVVVK
0.000653

Find the recorded koff belonging to clone 299 VH 0 (rb) / VL 5 (antibody, V domains shown) VH: QSMEESGGRLVTPGTPLTLTCTVSGFSLSSYAMSWVRQAPGKGLEWIGYIWSGGSTDYASWAKGRFTISKTSTTVDLKITSPTTEDTATYFCARRYGTSYPDYGDANGFDPWGPGTLVTVSS VL: DIQMTQSPSSLSASVGDRVTITCRASQSISSYLSWYQQKPGKAPKLLIYRASTLASGVPSRFSGSGSGTDFTLTISSLQPEDFATYYCQQSYSSSNVDNTFGGGTKVEIK and report it.
0.00194

Please report the recorded koff for clone 299 VH 20 / VL 0 (rb) (antibody, V domains shown) VH: QSMQESGPGLVKPSQTLSLTCTVSGFSLSSYAMSWIRQHPGKGLEWIGYIWSGGSTDYAPSLKSRVTISVDTSKNQVSLKLSSVTAADTAVYYCARRYGTSYPDYGDANGFDPWGQGTLVTVSS VL: AYDMTQTPASVEVAVGGTVTIKCQASQSISSYLSWYQQKPGQRPKLLIYRASTLASGVSSRFKGSGSGTQFTLTISGVECADAATYYCQQCYSSSNVDNTFGGGTEVVVK .
0.00111
